Ref: ChEMBL document CHEMBL2034818

measurementTarget: D-alanyl-D-alanine carboxypeptidase (Actinomadura sp. R39, UniProt P39045)
Sequence (P39045 whole entry): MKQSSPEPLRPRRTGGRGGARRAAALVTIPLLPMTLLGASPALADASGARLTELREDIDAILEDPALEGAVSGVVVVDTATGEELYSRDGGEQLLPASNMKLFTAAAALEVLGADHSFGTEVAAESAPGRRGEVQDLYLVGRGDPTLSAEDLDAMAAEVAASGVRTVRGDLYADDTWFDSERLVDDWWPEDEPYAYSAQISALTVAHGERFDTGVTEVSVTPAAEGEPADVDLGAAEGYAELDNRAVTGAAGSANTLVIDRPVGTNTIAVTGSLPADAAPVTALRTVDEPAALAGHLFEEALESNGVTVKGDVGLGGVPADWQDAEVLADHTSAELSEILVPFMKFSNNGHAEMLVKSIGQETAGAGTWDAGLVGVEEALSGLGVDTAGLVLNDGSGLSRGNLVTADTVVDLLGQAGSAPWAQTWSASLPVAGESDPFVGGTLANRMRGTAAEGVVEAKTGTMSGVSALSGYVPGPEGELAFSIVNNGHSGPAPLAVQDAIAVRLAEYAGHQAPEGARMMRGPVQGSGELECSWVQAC
Rule: IC50 below 40 µM gives Yes. Equal to or above 40 µM gives No.

Solved cases below.
O=C(NCB(O)O)c1ccccc1C(F)(F)F ... Yes
COc1cccc(OC)c1C(=O)NCB(O)O ... Yes
O=C(NCB(O)O)c1ccccc1F ... No
O=C(NCB(O)O)c1ccccc1Cl ... No
O=C(NCB(O)O)c1ccccc1[N+](=O)[O-] ... Yes
O=C(NCB(O)O)c1c(F)cccc1F ... Yes

Let us examine a further case.
Could you please tell me whether IC50 recorded for O=C(Cc1ccccc1)NCB(O)O is less than 40 µM?
No
